- test_summary: Lethality in Brine shrimp lethality test
- condition_details: artemia
measured_quantity: LC50 (µg/mL)
Give the number; µg/mL is assumed, so skip it.

| molecule | reading_unit | readout_value |
| --- | --- | --- |
| CCCCCCCCCCCCC(O)[C@@H]1CC[C@H]([C@H](O)CCCCCCCCCCC(O)CC2=C[C@H](C)OC2=O)O1 (single isomer, unassigned) | µg/mL | 0.207 |
| CCCCCCCCCCCCC(O)C1CC[C@H]([C@H](O)CCCCCCCCCCC(O)CC2=C[C@H](C)OC2=O)O1 (single isomer, unassigned) | µg/mL | 0.346 |

Now let's try a different one.
Ask | Endpoint output: LC50 of CCCCCCCCCCCCC(O)[C@H]1CC[C@H]([C@H](O)CCCCCCCCCCC(O)CC2=C[C@H](C)OC2=O)O1 (single isomer, unassigned) . Value?
Reply | 0.183
